molecular target: HCV NS3/4A protease complex (UniProt P27958, C1454S/C1711G, species not given); construct: fused on or other part: Three-lysine solubilising tail at the C-terminus of NS4A; test: Recombinant HCV NS3/4A protease complex FRET peptide assay (strain not stated); type: biochemical; details: HCV NS3/4A protease enzyme assay, read-out: IC50 range
pIC50: −log10 of the molar value.

compound | pIC50
C=CC1C[C@]1(NC(=O)[C@@H]1C[C@@H](OC(=O)Nc2c(F)cccc2F)CN1C(=O)[C@@H](NC(=O)OC(C)(C)C)C(C)(C)C)C(=O)NS(=O)(=O)C1CC1 (some centres unmarked) | 6.00 to 7.00
C=CC1C[C@]1(NC(=O)[C@@H]1C[C@@H](OC(=O)Nc2ccccc2N2CCOCC2)CN1C(=O)[C@@H](NC(=O)OC(C)(C)C)C(C)(C)C)C(=O)NS(=O)(=O)C1CC1 (some centres unmarked) | > 7.00
C=CC1C[C@]1(NC(=O)[C@@H]1C[C@@H](OC(=O)Nc2onc(C)c2C)CN1C(=O)[C@@H](NC(=O)OC(C)(C)C)C(C)(C)C)C(=O)NS(=O)(=O)C1CC1 (some centres unmarked) | 6.00 to 7.00
C=CC1C[C@]1(NC(=O)[C@@H]1C[C@@H](OC(=O)Nc2ccccc2-n2cccc2)CN1C(=O)[C@@H](NC(=O)OC(C)(C)C)C(C)(C)C)C(=O)NS(=O)(=O)C1CC1 (some centres unmarked) | > 7.00
C=CC1C[C@]1(NC(=O)[C@@H]1C[C@@H](OC(=O)Nc2c(C)cccc2C)CN1C(=O)[C@@H](NC(=O)OC(C)(C)C)C(C)(C)C)C(=O)NS(=O)(=O)C1CC1 (some centres unmarked) | 5.00 to 6.00

----------
target: NS3/4A BMS strain (UniProt P27958, C1454S/C1711G, species not given/STRAIN_BMS); construct: fused on or other part: Three-lysine solubilising tail at the C-terminus of NS4A; experiment: Recombinant HCV NS3/4A protease complex FRET peptide assay, BMS strain; details: read-out: IC50 against the NS3/4A BMS strain in the enzyme assay
measurement_name: IC50 (nM)

molecule | scale_unit | number
C=CC1C[C@]1(NC(=O)[C@@H]1C[C@@H](OC(=O)Nc2ccccc2-c2ccccc2)CN1C(=O)[C@@H](NC(=O)OC(C)(C)C)C(C)(C)C)C(=O)NS(=O)(=O)C1CC1 (stereo partly shown) [Compound 8] | nM | 51

----------
Molecular target: NS3/4A J4L6S strain (Hepatitis C virus genotype 1b, UniProt O92972, C1454S/C1711G)
Construct: DNA encoding the recombinant HCV NS3/4A protease complex (amino acids 1027 to 1711) for these strains; His tag (inferred from pET21b vector and Ni-NTA purification)
Sequence (O92972 1027-1711 C1454S/C1711G): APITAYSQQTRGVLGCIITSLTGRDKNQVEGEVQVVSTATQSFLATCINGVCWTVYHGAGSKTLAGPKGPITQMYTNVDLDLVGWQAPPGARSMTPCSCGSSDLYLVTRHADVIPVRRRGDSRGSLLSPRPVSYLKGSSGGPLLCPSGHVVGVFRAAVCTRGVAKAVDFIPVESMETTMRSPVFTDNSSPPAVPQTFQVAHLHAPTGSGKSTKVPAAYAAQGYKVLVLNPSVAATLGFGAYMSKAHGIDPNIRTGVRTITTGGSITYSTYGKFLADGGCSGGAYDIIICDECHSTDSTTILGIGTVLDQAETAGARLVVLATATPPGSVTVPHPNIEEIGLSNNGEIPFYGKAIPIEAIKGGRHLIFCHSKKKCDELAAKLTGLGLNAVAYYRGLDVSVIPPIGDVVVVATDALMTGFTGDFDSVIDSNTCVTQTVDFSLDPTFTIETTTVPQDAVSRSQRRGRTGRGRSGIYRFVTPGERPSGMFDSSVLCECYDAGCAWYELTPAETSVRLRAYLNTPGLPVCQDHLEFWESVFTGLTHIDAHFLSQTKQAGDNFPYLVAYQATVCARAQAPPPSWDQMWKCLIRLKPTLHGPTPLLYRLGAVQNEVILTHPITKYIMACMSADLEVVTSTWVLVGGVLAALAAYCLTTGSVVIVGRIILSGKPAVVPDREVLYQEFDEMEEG
Experiment: Recombinant HCV NS3/4A protease complex FRET peptide assay, J4L6S strain
Source text: Recombinant HCV NS3/4A Protease Complex FRET Peptide Assay The purpose of this in vitro assay was to measure the inhibition of HCV NS3 protease complexes, derived from the BMS, H77C or J416S strains, as described below, by compounds of the present invention. This assay provides an indication of how effective compounds of the present invention would be in inhibiting HCV proteolytic activity. Serum from an HCV-infected patient was obtained from Dr. T. Wright, San Francisco Hospital. […]
measurement_name: IC50 (nM)

molecule | measurement_name | number
C=CC1C[C@]1(NC(=O)[C@@H]1C[C@@H](OC(=O)Nc2ccccc2-c2ccccc2)CN1C(=O)[C@@H](NC(=O)OC(C)(C)C)C(C)(C)C)C(=O)NS(=O)(=O)C1CC1 (stereo partly shown) [Compound 8] | IC50 | 9.5

----------
Recorded pIC50, one value per entry.
target: HCV NS3/4A protease complex (UniProt P27958, C1454S/C1711G, species not given); construct: fused on or other part: Three-lysine solubilising tail at the C-terminus of NS4A; test: Recombinant HCV NS3/4A protease complex FRET peptide assay (strain not stated); assay type: biochemical; conditions: HCV NS3/4A protease enzyme assay, read-out: IC50 range
pIC50: −log10 of the molar value.

compound | pIC50
C=CC1C[C@]1(NC(=O)[C@@H]1C[C@@H](OC(=O)n2c3ccccc3c3ccccc32)CN1C(=O)[C@@H](NC(=O)OC(C)(C)C)C(C)(C)C)C(=O)NS(=O)(=O)C1CC1 (stereo partly shown) | > 7.00
C=CC1C[C@]1(NC(=O)[C@@H]1C[C@@H](OC(=O)NC2CCCCC2)CN1C(=O)[C@@H](NC(=O)OC(C)(C)C)C(C)(C)C)C(=O)NS(=O)(=O)C1CC1 (stereo partly shown) | > 7.00
C=CC1C[C@]1(NC(=O)[C@@H]1C[C@@H](OC(=O)Nc2ccccc2F)CN1C(=O)[C@@H](NC(=O)OC(C)(C)C)C(C)(C)C)C(=O)NS(=O)(=O)C1CC1 (stereo partly shown) | 6.00 to 7.00
C=CC1C[C@]1(NC(=O)[C@@H]1C[C@@H](OC(=O)Nc2ccccc2-n2nc3cc(OC)c(OC)cc3n2)CN1C(=O)[C@@H](NC(=O)OC(C)(C)C)C(C)(C)C)C(=O)NS(=O)(=O)C1CC1 (stereo partly shown) | > 7.00
C=CC1C[C@]1(NC(=O)[C@@H]1C[C@@H](OC(=O)Nc2ccc3c(c2)OCO3)CN1C(=O)[C@@H](NC(=O)OC(C)(C)C)C(C)(C)C)C(=O)NS(=O)(=O)C1CC1 (stereo partly shown) | 6.00 to 7.00
C=CC1C[C@]1(NC(=O)[C@@H]1C[C@@H](OC(=O)Nc2sc3c(c2C(=O)OCC)CCCC3)CN1C(=O)[C@@H](NC(=O)OC(C)(C)C)C(C)(C)C)C(=O)NS(=O)(=O)C1CC1 (stereo partly shown) | 6.00 to 7.00
C=CC1C[C@]1(NC(=O)[C@@H]1C[C@@H](OC(=O)Nc2cc(C)nn2-c2ccccc2)CN1C(=O)[C@@H](NC(=O)OC(C)(C)C)C(C)(C)C)C(=O)NS(=O)(=O)C1CC1 (stereo partly shown) | > 7.00
C=CC1C[C@]1(NC(=O)[C@@H]1C[C@@H](OC(=O)Nc2cc(C)ccc2F)CN1C(=O)[C@@H](NC(=O)OC(C)(C)C)C(C)(C)C)C(=O)NS(=O)(=O)C1CC1 (stereo partly shown) | > 7.00
C=CC1C[C@]1(NC(=O)[C@@H]1C[C@@H](OC(=O)Nc2ccccc2C(=O)OC(C)C)CN1C(=O)[C@@H](NC(=O)OC(C)(C)C)C(C)(C)C)C(=O)NS(=O)(=O)C1CC1 (stereo partly shown) | > 7.00
C=CC1C[C@]1(NC(=O)[C@@H]1C[C@@H](OC(=O)NCc2cccc(F)c2)CN1C(=O)[C@@H](NC(=O)OC(C)(C)C)C(C)(C)C)C(=O)NS(=O)(=O)C1CC1 (stereo partly shown) | 6.00 to 7.00

----------
target: HCV NS3/4A protease complex (UniProt P27958, C1454S/C1711G, species not given); construct: fused on or other part: Three-lysine solubilising tail at the C-terminus of NS4A; assay: Recombinant HCV NS3/4A protease complex FRET peptide assay (strain not stated); format: biochemical; conditions: HCV NS3/4A protease enzyme assay, read-out: IC50 range
pIC50: −log10 of the molar value.

compound | pIC50
C=CC1C[C@]1(NC(=O)[C@@H]1C[C@@H](OC(=O)Nc2ccccc2-c2nnc[nH]2)CN1C(=O)[C@@H](NC(=O)OC(C)(C)C)C(C)(C)C)C(=O)NS(=O)(=O)C1CC1 (some centres unmarked) [Compound 88] | > 7.00
C=CC1C[C@]1(NC(=O)[C@@H]1C[C@@H](OC(=O)N(C)c2ccccc2)CN1C(=O)[C@@H](NC(=O)OC(C)(C)C)C(C)(C)C)C(=O)NS(=O)(=O)C1CC1 (some centres unmarked) [Compound 1] | 6.00 to 7.00
C=CC1C[C@]1(NC(=O)[C@@H]1C[C@@H](OC(=O)Nc2cc(C(C)=O)ccc2N2CCCCC2)CN1C(=O)[C@@H](NC(=O)OC(C)(C)C)C(C)(C)C)C(=O)NS(=O)(=O)C1CC1 (some centres unmarked) [Compound 80] | > 7.00
C=CC1C[C@]1(NC(=O)[C@@H]1C[C@@H](OC(=O)Nc2cc(C(=O)OCC)ccc2N2CCCCC2)CN1C(=O)[C@@H](NC(=O)OC(C)(C)C)C(C)(C)C)C(=O)NS(=O)(=O)C1CC1 (some centres unmarked) [Compound 91] | > 7.00
C=CC1C[C@]1(NC(=O)[C@@H]1C[C@@H](OC(=O)Nc2ccccc2-c2ccc(C)o2)CN1C(=O)[C@@H](NC(=O)OC(C)(C)C)C(C)(C)C)C(=O)NS(=O)(=O)C1CC1 (some centres unmarked) [Compound 81] | > 7.00
C=CC1C[C@]1(NC(=O)[C@@H]1C[C@@H](OC(=O)Nc2cccc(C(F)(F)F)c2)CN1C(=O)[C@@H](NC(=O)OC(C)(C)C)C(C)(C)C)C(=O)NS(=O)(=O)C1CC1 (some centres unmarked) [Compound 34] | 6.00 to 7.00
C=CC1C[C@]1(NC(=O)[C@@H]1C[C@@H](OC(=O)Nc2ccc(Cl)cc2-c2cc(C)n[nH]2)CN1C(=O)[C@@H](NC(=O)OC(C)(C)C)C(C)(C)C)C(=O)NS(=O)(=O)C1CC1 (some centres unmarked) [Compound 78] | 6.00 to 7.00
C=CC1C[C@]1(NC(=O)[C@@H]1C[C@@H](OC(=O)Nc2ccccc2Oc2ccccc2)CN1C(=O)[C@@H](NC(=O)OC(C)(C)C)C(C)(C)C)C(=O)NS(=O)(=O)C1CC1 (some centres unmarked) [Compound 67] | > 7.00
C=CC1C[C@]1(NC(=O)[C@@H]1C[C@@H](OC(=O)Nc2cc(C)ccc2Cl)CN1C(=O)[C@@H](NC(=O)OC(C)(C)C)C(C)(C)C)C(=O)NS(=O)(=O)C1CC1 (some centres unmarked) [Compound 38] | > 7.00
C=CC1C[C@]1(NC(=O)[C@@H]1C[C@@H](OC(=O)Nc2cc(C(C)=O)ccc2N2CCC(C(=O)OCC)CC2)CN1C(=O)[C@@H](NC(=O)OC(C)(C)C)C(C)(C)C)C(=O)NS(=O)(=O)C1CC1 (some centres unmarked) [Compound 76] | > 7.00
C=CC1C[C@]1(NC(=O)[C@@H]1C[C@@H](OC(=O)Nc2cc(OC)ccc2-n2cccn2)CN1C(=O)[C@@H](NC(=O)OC(C)(C)C)C(C)(C)C)C(=O)NS(=O)(=O)C1CC1 (some centres unmarked) [Compound 95] | > 7.00
C=CC1CC1(NC(=O)[C@@H]1C[C@@H](OC(=O)Nc2ccccc2)CN1C(=O)[C@@H](NC(=O)OC(C)(C)C)C(C)(C)C)C(=O)O (some centres unmarked) [Compound 106] | < 5.00
C=CC1CC1(NC(=O)[C@@H]1C[C@@H](OC(=O)Nc2c(F)cccc2F)CN1C(=O)[C@@H](NC(=O)OC(C)(C)C)C(C)(C)C)C(=O)O (some centres unmarked) [Compound 102] | < 5.00
C=CC1C[C@]1(NC(=O)[C@@H]1C[C@@H](OC(=O)Nc2ccc(OC)cc2[N+](=O)[O-])CN1C(=O)[C@@H](NC(=O)OC(C)(C)C)C(C)(C)C)C(=O)NS(=O)(=O)C1CC1 (some centres unmarked) [Compound 41] | > 7.00
C=CC1C[C@]1(NC(=O)[C@@H]1C[C@@H](OC(=O)Nc2cc([N+](=O)[O-])ccc2C)CN1C(=O)[C@@H](NC(=O)OC(C)(C)C)C(C)(C)C)C(=O)NS(=O)(=O)C1CC1 (some centres unmarked) [Compound 15] | > 7.00
C=CC1C[C@]1(NC(=O)[C@@H]1C[C@@H](OC(=O)Nc2cccc(C(=O)OC)c2)CN1C(=O)[C@@H](NC(=O)OC(C)(C)C)C(C)(C)C)C(=O)NS(=O)(=O)C1CC1 (some centres unmarked) [Compound 40] | > 7.00
C=CC1C[C@]1(NC(=O)[C@@H]1C[C@@H](OC(=O)Nc2cscc2C(=O)OC)CN1C(=O)[C@@H](NC(=O)OC(C)(C)C)C(C)(C)C)C(=O)NS(=O)(=O)C1CC1 (some centres unmarked) [Compound 71] | > 7.00
C=CC1C[C@]1(NC(=O)[C@@H]1C[C@@H](OC(=O)Nc2cc(C)cc(C)c2)CN1C(=O)[C@@H](NC(=O)OC(C)(C)C)C(C)(C)C)C(=O)NS(=O)(=O)C1CC1 (some centres unmarked) [Compound 50] | > 7.00
C=CC1C[C@]1(NC(=O)[C@@H]1C[C@@H](OC(=O)Nc2cc(C)ccc2-n2cccc2)CN1C(=O)[C@@H](NC(=O)OC(C)(C)C)C(C)(C)C)C(=O)NS(=O)(=O)C1CC1 (some centres unmarked) [Compound 83] | > 7.00
C=CC1C[C@]1(NC(=O)[C@@H]1C[C@@H](OC(=O)Nc2ccccc2OC)CN1C(=O)[C@@H](NC(=O)OC(C)(C)C)C(C)(C)C)C(=O)NS(=O)(=O)C1CC1 (some centres unmarked) [Compound 55] | > 7.00

Values compiled from patent US7041698B2.
